The reported numbers originate from the supplement of paper PMC13380429.

- Tested on: Caco-2
- TEST PROTOCOL: drug sensitivity score (DSS) for viability; higher = more toxic; extreme values may be limits of the assay
- CONDITION: 72 h
VALUE KIND: drug sensitivity score
Could you keep your reply to the number by itself?

Known results for compounds:
CC(C)=CCC/C(C)=C/CNCCNC1C2CC3CC(C2)CC1C3 (stereo not drawn) : 2.4
CC(C)Oc1ccc(-c2nc(-c3cccc4c3CC[C@@H]4NCCO)no2)cc1C#N : 12.1
C[N+](C)(C)CC[N+]1(C)Cc2c(Cl)c(Cl)c(Cl)c(Cl)c2C1 [chlorisondamine-diiodide] : 0
COc1ccc(C(=O)CC2(O)C(=O)Nc3c(Cl)ccc(Cl)c32)cc1 (stereo not drawn) : 2.8
COCC1(CO)C(=O)C2CCN1CC2 (stereo not drawn) : 0
CC(C)=CCC/C(C)=C/CC/C(C)=C/C=C/C(C)=C/C(=O)O : 0
CCN(CC)CCNc1ccc(CO)c2sc3ccccc3c(=O)c12 : 2.7
CC1(C)CCC(C)(C)c2cc(C3(c4ccc(C(=O)O)cc4)OCCO3)ccc21 : 0
COc1ccc(CC2NCCc3cc(OC)c(OC)cc32)cc1OC (stereo not drawn) [tetrahydropapaverine] : 0
Cc1noc(NS(=O)(=O)c2ccc(N)cc2)c1C : 0

Query: State the recorded drug sensitivity score for this entry: N=C(NCc1ccc(Cl)cc1)SCCCc1c[nH]cn1
Response: 0

Query: State the recorded drug sensitivity score for this entry: C[C@H](NCc1ccc(OCc2cccc(F)c2)cc1)C(N)=O [safinamide]
Response: 0

Query: State the recorded drug sensitivity score for this entry: O[C@@H]1CCCC[C@H]1N1CCC(c2ccccc2)CC1 (racemic)
Response: 0

Query: State the recorded drug sensitivity score for this entry: CCCC(=O)Nc1ncnc2c1ncn2[C@@H]1O[C@@H]2COP(=O)(O)O[C@H]2[C@H]1OC(=O)CCC
Response: 0

Query: State the recorded drug sensitivity score for this entry: CCOC(=O)N1CSC[C@H]1C(=O)O
Response: 0

Query: State the recorded drug sensitivity score for this entry: O=C1[C@H](Cc2ccc(O)cc2)N2C(=O)CCN(C(=O)NCc3ccccc3)[C@H]2CN1Cc1cccc2ccccc12
Response: 2.7

Query: State the recorded drug sensitivity score for this entry: Cc1csc2c(N[C@@H](C)CN3CCN(S(=O)(=O)c4ccc(Cl)c(Cl)c4)CC3)ncnc12
Response: 3.7

Query: State the recorded drug sensitivity score for this entry: CS(=O)(=O)Oc1ccc2c(NC(N)=O)c(C(=O)c3ccc(Cl)cc3Cl)oc2c1
Response: 0

----------
- System: HepG2
- TEST PROTOCOL: cell viability relative to DMSO; higher = less toxic
- CONDITION: 72 h; 10000 nM
Please respond with 1 (yes) when measured cell viability is strictly beneath 90%, and with 0 (no) in all other cases.

Here are 3 compounds together with their reported answers.
CC(=O)OCC(=O)[C@@]1(O)CC[C@H]2[C@@H]3CCC4=CC(=O)C=C[C@]4(C)[C@H]3[C@@H](O)C[C@@]21C [prednisolone-acetate] : 0 (no)
CCC(CC)COC(=O)[C@H](C)N[P@](=O)(OC[C@H]1O[C@@](C#N)(c2ccc3c(N)ncnn23)[C@H](O)[C@@H]1O)Oc1ccccc1 : 1 (yes)
C[C@@H](Oc1cc(-n2cnc3ccc(CN4CCN(C)CC4)cc32)sc1C(N)=O)c1ccccc1C(F)(F)F : 1 (yes)

Query: Dear colleague, could you confirm whether cell viability of Cc1ccc(O)c([C@H](CCN(C(C)C)C(C)C)c2ccccc2)c1 falls below 90%? Thanks.
Response: 0 (no)

Query: Dear colleague, could you confirm whether cell viability of CCCOC(=O)c1ccc(O)cc1 [propyl 4-hydroxybenzoate] falls below 90%? Thanks.
Response: 0 (no)

Query: Dear colleague, could you confirm whether cell viability of S=P(N1CC1)(N1CC1)N1CC1 falls below 90%? Thanks.
Response: 0 (no)

----------
// reported cell viability for each item listed
- System: HepG2
- TEST PROTOCOL: cell viability relative to DMSO; higher = less toxic
- CONDITION: 72 h; 10000 nM

Known results for molecules:
Nc1cc(C(F)(F)F)c(-c2nc(N3CCOCC3)nc(N3CCOCC3)n2)cn1 [PI3K-IN-2] : 25.1%
C[C@@]1(F)[C@H](O)[C@@H](CO)O[C@H]1n1ccc(N)nc1=O [PSI-6130] : 107%
CCOC(=O)n1ccn(C)c1=S [carbimazole] : 103%
Cc1cc(NC(=O)Nc2ccc(N(C)C)cc2)c2cc(F)cc(F)c2n1 : 80.1%

Now consider the entry below.
Query: State the recorded cell viability for this entry: O=C1C(Cl)=C(N2CCOCC2)C(=O)N1c1ccc(Cl)c(Cl)c1 [RI-1]
Response: 98.6%

----------
- System: Caco-2
- TEST PROTOCOL: cell viability relative to DMSO; higher = less toxic
- CONDITION: 72 h; 10000 nM
VALUE KIND: cell viability (%)
Your answer is read as %, so omit the unit and give the number.

Known results for compounds:
C[C@@H]1CC[C@@]2(NC1)O[C@H]1C[C@H]3[C@@H]4CC=C5C[C@@H](O[C@@H]6O[C@H](CO)[C@@H](O[C@@H]7O[C@@H](C)[C@H](O)[C@@H](O)[C@H]7O)[C@H](O)[C@H]6O[C@@H]6O[C@@H](C)[C@H](O)[C@@H](O)[C@H]6O)CC[C@]5(C)[C@H]4CC[C@]3(C)[C@H]1[C@@H]2C : 0.4
CC[C@@H]1C(=O)N(C)c2cnc(Nc3ccc(C(=O)NC4CCN(C)CC4)cc3OC)nc2N1C1CCCC1 : 31.5
O=[N+]([O-])c1ccc2c(c1)S(=O)(=O)C=C2 : 16.1

Query: State the recorded cell viability for this entry: CC1(C)CCC(C)(C)c2cc(C3(c4ccc(C(=O)O)cc4)OCCO3)ccc21
Response: 101

----------
- System: HepG2
- TEST PROTOCOL: cell viability relative to DMSO; higher = less toxic
- CONDITION: 72 h; 1 nM
// reported cell viability for each item listed
Your answer is read as %, so omit the unit and give the number.

Known results for molecules:
O=c1cc(N2CCN(c3cccc(C(F)(F)F)c3)CC2)[nH]c(=O)n1C1CCCCC1 : 100
O=C(O)/C=C/c1ccc(-c2ccc(O)c(C34CC5CC(CC(C5)C3)C4)c2)cc1 : 97.9
Cc1cc(-c2ccc(/N=N/c3ccc4c(S(=O)(=O)O)cc(S(=O)(=O)O)c(N)c4c3O)c(C)c2)ccc1/N=N/c1ccc2c(S(=O)(=O)O)cc(S(=O)(=O)O)c(N)c2c1O : 102
CS(=O)(=O)Oc1ccc2c(NC(N)=O)c(C(=O)c3ccc(Cl)cc3Cl)oc2c1 : 94.3
COc1cc2c(cc1OC)[C@@]13CCN4CC5=CCO[C@H]6CC(=O)N2[C@H]1[C@H]6[C@H]5C[C@H]43 : 109
CCN1CCC(n2cc(CNc3cc(Cl)c4ncc(C#N)c(Nc5ccc(F)c(Cl)c5)c4c3)nn2)CC1 : 102

Now consider the entry below.
Query: State the recorded cell viability for this entry: CC(C)[C@H](CO)Nc1nc(Nc2cc(N)cc(Cl)c2)c2ncn(C(C)C)c2n1
Response: 101

----------
- Test system: A549-ACE2
- TEST PROTOCOL: drug-induced phospholipidosis relative to tamoxifen; higher = more phospholipidosis
- CONDITION: 0.833333 µM; 48 h
// reported drug-induced phospholipidosis for each item listed
Your answer is read as %, so omit the unit and give the number.

Known results for molecules:
C=C[C@@]1(C)CC(=O)[C@]2(O)[C@@]3(C)[C@@H](O)CCC(C)(C)[C@@H]3[C@H](OC(=O)CCN(C)C)[C@H](OC(C)=O)[C@@]2(C)O1 [colforsin-daproate] : -1.25
CCC(CC)COC(=O)[C@H](C)N[P@](=O)(OC[C@H]1O[C@@](C#N)(c2ccc3c(N)ncnn23)[C@H](O)[C@@H]1O)Oc1ccccc1 : -7.54
O=c1[nH]c2ccccc2n1C1CCN(CCCC(c2ccc(F)cc2)c2ccc(F)cc2)CC1 [pimozide] : 5.4

Now consider the entry below.
Query: Record lookup: for A549-ACE2, what drug-induced phospholipidosis belongs to O=S(=O)(NCC1CC1)c1ccc(Nc2nccc(N3CCCc4cc(O)ccc43)n2)cc1 ?
Response: 12.3

----------
- System: Calu-3
- TEST PROTOCOL: cell viability relative to DMSO; higher = less toxic
- CONDITION: 72 h; 10 nM
// reported cell viability for each item listed
Your answer is read as %, so omit the unit and give the number.

C=C[C@@]1(C)CC(=O)[C@]2(O)[C@@]3(C)[C@@H](O)CCC(C)(C)[C@@H]3[C@H](OC(=O)CCN(C)C)[C@H](OC(C)=O)[C@@]2(C)O1 [colforsin-daproate] : 95.5
O=C1[C@H](Cc2ccc(O)cc2)N2C(=O)CCN(C(=O)NCc3ccccc3)[C@H]2CN1Cc1cccc2ccccc12 [ICG-001] : 106
CC(C)(C)C(=O)OCOP(=O)(COCCn1cnc2c(N)ncnc21)OCOC(=O)C(C)(C)C [adefovir-dipivoxil] : 97.6
CCCC(=O)Nc1ncnc2c1ncn2[C@@H]1O[C@@H]2COP(=O)(O)O[C@H]2[C@H]1OC(=O)CCC [bucladesine] : 92.9
Cc1cn(-c2cc(NC(=O)c3ccc(C)c(Nc4nccc(-c5cccnc5)n4)c3)cc(C(F)(F)F)c2)cn1 [nilotinib] : 106

Query: State the recorded cell viability for this entry: CO[C@@H](C)Cn1c(=O)n(C)c2cnc3ccc(-c4cncc(C(C)(C)O)c4)cc3c21
Response: 89.8

Query: State the recorded cell viability for this entry: CNC(=O)[C@H]1O[C@@H](n2cnc3c(NCc4cccc(I)c4)nc(Cl)nc32)[C@H](O)[C@@H]1O [CF102]
Response: 116

Query: State the recorded cell viability for this entry: CCC(=O)O[C@@H](O[P@@](=O)(CCCCc1ccccc1)CC(=O)N1C[C@H](C2CCCCC2)C[C@H]1C(=O)O)C(C)C [fosinopril]
Response: 89.7

Query: State the recorded cell viability for this entry: O=C1c2ccccc2-c2c(NCCc3ccccc3)c(=O)[nH]c3cccc1c23 [BRD7389]
Response: 100
